# tested.system: human A2A receptor (A2AR) (Homo sapiens (Human), UniProt P29274)
# Sequence (P29274 whole entry): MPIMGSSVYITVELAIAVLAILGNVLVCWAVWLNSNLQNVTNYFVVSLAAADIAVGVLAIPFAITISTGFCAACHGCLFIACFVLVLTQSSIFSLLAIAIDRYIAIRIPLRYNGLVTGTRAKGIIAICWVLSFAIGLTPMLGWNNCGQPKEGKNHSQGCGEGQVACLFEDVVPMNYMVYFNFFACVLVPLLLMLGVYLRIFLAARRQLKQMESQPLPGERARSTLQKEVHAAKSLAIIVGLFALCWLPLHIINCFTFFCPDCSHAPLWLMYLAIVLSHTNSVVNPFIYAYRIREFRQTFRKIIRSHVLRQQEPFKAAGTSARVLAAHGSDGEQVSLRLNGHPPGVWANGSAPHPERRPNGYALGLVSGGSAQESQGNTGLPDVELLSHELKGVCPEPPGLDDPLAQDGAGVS
# experimental.protocol: Luciferase reporter assay (HEK293-A2AR-luc2p/CRE/Hygro cells)
# Format: cell-based
# conditions.used: 3 nM CGS21680, 5 h incubation
So I've got a bunch of compounds here, and I need their IC50 values.
Write the answer as a number in nM, unit excluded.

In: Any idea what IC50 was measured for Nc1nc2c(cnn2C(C(=O)NCC2(O)COC2)c2ccccc2)c2nc(-c3ccco3)nn12 (stereo not shown) [Example 82] ?
Out: 4.5

In: Now consider C[C@](C(=O)NCc1cc(F)ccn1)(c1ccccc1)n1ncc2c1nc(N)n1nc(-c3ccco3)nc21 [Example 118B] and answer again.
Out: 6

In: Now consider CCCC(C(=O)NCc1ccccc1OC)n1ncc2c1nc(N)n1nc(-c3ccco3)nc21 (stereo not shown) [Example 21] and answer again.
Out: 15.3

In: Now consider CC(C(=O)NCc1ncccc1F)(c1ccccc1)n1ncc2c1nc(N)n1nc(-c3ccco3)nc21 (stereo not shown) [Example 119] and answer again.
Out: 3.2

* * *

Form: system (UniProt:P29274), quantity (Ki), values below.
Write the answer as a number in nM, unit excluded.

In: Any idea what Ki was measured for C[C@](C(=O)N[C@H]1CC[C@@H](O)CC1)(c1ccccc1)n1ncc2c1nc(N)n1nc(-c3ccco3)nc21 [Example 76B] ?
Out: 1.6

In: Now consider CC1(O)CCC(NC(=O)[C@@](C)(c2ccccc2)n2ncc3c2nc(N)n2nc(-c4ccco4)nc32)CC1 (some centres unmarked) [Example 69B] and answer again.
Out: 1.6

In: Now consider Nc1nc2c(cnn2[C@H](C(=O)NCC2(O)COC2)c2ccccc2)c2nc(-c3ccco3)nn12 [Example 82B] and answer again.
Out: 1.7

In: Now consider C[C@](C(=O)NCC1(O)COC1)(c1ccccc1)n1ncc2c1nc(N)n1nc(-c3ccco3)nc21 [Example 31B] and answer again.
Out: 1.2

In: Now consider C[C@](C(=O)N[C@@H]1CCC[C@@H]1O)(c1ccccc1)n1ncc2c1nc(N)n1nc(-c3ccco3)nc21 [Example 48B] and answer again.
Out: 2.2

* * *

# experimental.protocol: Mouse BBB assay
# Assay type: in vivo
# conditions.used: oral 10 mg/kg, limit of quantitation plasma 1 ng/ml, read-out: Plasma
assay.endpoint: concentration at 1 h
Could you give the number and then its unit, please?

In: Any idea what concentration at 1 h was measured for C[C@](C(=O)N[C@@H]1CCC[C@@H]1O)(c1ccccc1)n1ncc2c1nc(N)n1nc(-c3ccco3)nc21 [Example 48B] ?
Out: 56.3 ng/mL

In: Now consider CC1(O)CCC(NC(=O)[C@@](C)(c2ccccc2)n2ncc3c2nc(N)n2nc(-c4ccco4)nc32)CC1 (some centres unmarked) [Example 69B] and answer again.
Out: 29.4 ng/mL

In: Now consider COCCOc1ccc(N2CCN(CCn3ncc4c3nc(N)n3nc(-c5ccco5)nc43)CC2)cc1 [Preladenant, reference compound] and answer again.
Out: 197 ng/mL

In: Now consider C[C@](C(=O)N[C@H]1CC[C@@H](O)CC1)(c1ccccc1)n1ncc2c1nc(N)n1nc(-c3ccco3)nc21 [Example 76B] and answer again.
Out: 39.1 ng/mL

In: Now consider C[C@](C(=O)NCC1(O)COC1)(c1ccccc1)n1ncc2c1nc(N)n1nc(-c3ccco3)nc21 [Example 31B] and answer again.
Out: 177 ng/mL

* * *

# tested.system: UniProtKB P29274
# experimental.protocol: Luciferase reporter assay (HEK293-A2AR-luc2p/CRE/Hygro cells)
# Format: cell-based
# conditions.used: 3 nM CGS21680, 5 h incubation
So basically: is IC50 under 4 nM? Then 1. Not under? Then -1.

In: Lab log: compare recorded IC50 with 4 nM; is it strictly lower for C[C@](C(=O)N[C@H]1CC[S@@+]([O-])CC1)(c1ccccc1)n1ncc2c1nc(N)n1nc(-c3ccco3)nc21 (single isomer, unassigned) [Example 146B-1] ?
Out: -1

In: Now consider C[C@](C(=O)N[C@H]1C[C@H](O)C1)(c1ccccc1)n1ncc2c1nc(N)n1nc(-c3ccco3)nc21 [Example 102B] and answer again.
Out: -1

In: Now consider COc1ccc(CNC(=O)[C@@](C)(c2ccccc2)n2ncc3c2nc(N)n2nc(-c4ccco4)nc32)nc1 [Example 113B] and answer again.
Out: 1

In: Now consider Nc1nc2c(cnn2C(C(=O)NC2CCCc3ccccc32)c2ccccc2)c2nc(-c3ccco3)nn12 (centres unmarked) [Example 13] and answer again.
Out: -1

In: Now consider CC(C(=O)NCC1(O)CCOCC1)(c1ccccc1)n1ncc2c1nc(N)n1nc(-c3ccco3)nc21 (centres unmarked) [Example 80] and answer again.
Out: -1

In: Now consider C[C@](C(=O)NCc1cc(C(F)(F)F)ccn1)(c1ccccc1)n1ncc2c1nc(N)n1nc(-c3ccco3)nc21 [Example 143B] and answer again.
Out: -1

In: Now consider C[C@]1(O)CC[C@H](NC(=O)C(c2ccccc2)n2ncc3c2nc(N)n2nc(-c4ccco4)nc32)CC1 (some centres unmarked) [Example 96] and answer again.
Out: -1

In: Now consider CC(C(=O)NCc1cccc(C2(O)CCC2)n1)(c1ccccc1)n1ncc2c1nc(N)n1nc(-c3ccco3)nc21 (centres unmarked) [Example 130] and answer again.
Out: -1

In: Now consider Nc1nc2c(cnn2C(C(=O)NCc2ccc(F)cc2)c2ccccc2)c2nc(-c3ccco3)nn12 (centres unmarked) [Example 26] and answer again.
Out: 1

In: Now consider Nc1nc2c(cnn2C(C(=O)NCc2ccccc2OC(F)(F)F)c2ccccc2)c2nc(-c3ccco3)nn12 (centres unmarked) [Example 8] and answer again.
Out: 1

In: Now consider Nc1nc2c(cnn2C(C(=O)NCc2ccc(C(F)(F)F)cc2)c2ccccc2)c2nc(-c3ccco3)nn12 (centres unmarked) [Example 29] and answer again.
Out: 1

In: Now consider CC(C(=O)NCC1(O)COC1)(c1ccccc1)n1ncc2c1nc(N)n1nc(-c3ccco3)nc21 (centres unmarked) [Example 31] and answer again.
Out: -1

In: Now consider CC(C(=O)NCC1CCCO1)(c1ccccc1)n1ncc2c1nc(N)n1nc(-c3ccco3)nc21 (centres unmarked) [Example 49] and answer again.
Out: 1

In: Now consider CCC(C(=O)NCC1(O)COC1)(c1ccccc1)n1ncc2c1nc(N)n1nc(-c3ccco3)nc21 (centres unmarked) [Example 103] and answer again.
Out: -1

In: Now consider COc1cccnc1CNC(=O)[C@@](C)(c1ccccc1)n1ncc2c1nc(N)n1nc(-c3ccco3)nc21 [Example 115B] and answer again.
Out: 1

In: Now consider Cc1ccc(CNC(=O)C(c2ccccc2)n2ncc3c2nc(N)n2nc(-c4ccco4)nc32)cc1 (centres unmarked) [Example 25] and answer again.
Out: 1

In: Now consider CNCCNC(=O)C(C)(c1ccccc1)n1ncc2c1nc(N)n1nc(-c3ccco3)nc21 (centres unmarked) [Example 81] and answer again.
Out: -1

In: Now consider Nc1nc2c(cnn2C(C(=O)NCCc2ccccc2)c2ccccc2)c2nc(-c3ccco3)nn12 (centres unmarked) [Example 17] and answer again.
Out: 1

In: Now consider Nc1nc2c(cnn2C(C(=O)N[C@@H]2CCC[C@@H]2O)c2ccccc2)c2nc(-c3ccco3)nn12 (some centres unmarked) [Example 90] and answer again.
Out: -1

In: Now consider NC(=O)C(c1ccccc1)n1ncc2c1nc(N)n1nc(-c3ccco3)nc21 (centres unmarked) [Example 19] and answer again.
Out: -1

In: Now consider Nc1nc2c(cnn2C(C(=O)NC2CCCCC2)c2ccccc2)c2nc(-c3ccco3)nn12 (centres unmarked) [Example 2] and answer again.
Out: -1

In: Now consider CC(C(=O)NCc1ccc(F)cn1)(c1ccccc1)n1ncc2c1nc(N)n1nc(-c3ccco3)nc21 (centres unmarked) [Example 117] and answer again.
Out: 1

In: Now consider Nc1nc2c(cnn2C(C(=O)NCc2cccc(C(F)(F)F)c2)c2ccccc2)c2nc(-c3ccco3)nn12 (centres unmarked) [Example 22] and answer again.
Out: 1

In: Now consider CC(C(=O)NC[C@@H]1CCOC1)(c1ccccc1)n1ncc2c1nc(N)n1nc(-c3ccco3)nc21 (some centres unmarked) [Example 53] and answer again.
Out: -1

In: Now consider Cc1cccc(CNC(=O)[C@@](C)(c2ccccc2)n2ncc3c2nc(N)n2nc(-c4ccco4)nc32)n1 [Example 108B] and answer again.
Out: 1

* * *

# tested.system: human A2A receptor (A2AR) (Homo sapiens (Human), UniProt P29274)
# experimental.protocol: Luciferase reporter assay (HEK293-A2AR-luc2p/CRE/Hygro cells)
# Assay type: cell-based
# conditions.used: 3 nM CGS21680, 5 h incubation
assay.endpoint: IC50 (nM)
Write the answer as a number in nM, unit excluded.

In: Any idea what IC50 was measured for Cc1ccnc(CNC(=O)C(C)(c2ccccc2)n2ncc3c2nc(N)n2nc(-c4ccco4)nc32)c1 (stereo not shown) ?
Out: 2.4

In: Now consider C[C@@](C(=O)N[C@H]1CC[C@@H](O)CC1)(c1ccccc1)n1ncc2c1nc(N)n1nc(-c3ccco3)nc21 [Example 76A] and answer again.
Out: 40.4

In: Now consider C[C@@](C(=O)NCC1(O)COC1)(c1ccccc1)n1ncc2c1nc(N)n1nc(-c3ccco3)nc21 [Example 31A] and answer again.
Out: 28

In: Now consider CC(C(=O)NC1(CO)CC1)(c1ccccc1)n1ncc2c1nc(N)n1nc(-c3ccco3)nc21 (stereo not shown) and answer again.
Out: 500

In: Now consider CNC(=O)C(c1ccccc1)n1ncc2c1nc(N)n1nc(-c3ccco3)nc21 (stereo not shown) and answer again.
Out: 3.8

In: Now consider Nc1nc2c(cnn2C(C(=O)NC2CCCC2)c2ccccc2)c2nc(-c3ccco3)nn12 (stereo not shown) and answer again.
Out: 10.2

In: Now consider Nc1nc2c(cnn2C(C(=O)N[C@H]2CC[C@@H](O)CC2)c2ccccc2)c2nc(-c3ccco3)nn12 (mixture of isomers) and answer again.
Out: 12.4

Cited source for all entries: patent US11472811B2
